The values you see were collected from patent US20230233569A1.

Measured IC50 of individual entries
# target_or_system: KRAS G12S (Homo sapiens, UniProt P01116+P62937, G12S)
# Sequence (P01116 1-169 isoform P01116-2 G12S limits assumed): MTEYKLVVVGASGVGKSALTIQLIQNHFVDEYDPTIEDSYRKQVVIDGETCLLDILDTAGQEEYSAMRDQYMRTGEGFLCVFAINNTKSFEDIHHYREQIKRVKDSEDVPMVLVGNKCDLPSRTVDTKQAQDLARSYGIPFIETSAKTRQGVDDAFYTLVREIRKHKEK
# Sequence (P62937 whole entry): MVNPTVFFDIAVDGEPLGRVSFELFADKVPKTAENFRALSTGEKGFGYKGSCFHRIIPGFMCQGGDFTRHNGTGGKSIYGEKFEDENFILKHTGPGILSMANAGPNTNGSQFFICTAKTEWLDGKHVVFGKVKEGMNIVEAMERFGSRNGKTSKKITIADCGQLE
# assay_notes: Disruption of BRAF RBD interaction with Ras (FRET / MOA assay, with Cyclophilin A)
# Format: biochemical
# conditions: read-out: KRAS G12S FRET data, IC50

{"compound": "CCn1c(-c2cccnc2[C@H](C)OC)c2c3cc(ccc31)-c1csc(n1)C[C@H](NC(=O)[C@H](C(C)C)N(C)C(=O)N1CC([C@H](C)OC)C1)C(=O)N1CCC[C@H](N1)C(=O)OCC(C)(C)C2 (atropisomer, axis not shown) [Example A279]", "value_type": "IC50", "obs_value": "100 to 1000 nM"}
{"compound": "CCn1c(-c2cc(C3CCN(C)CC3)cnc2[C@H](C)OC)c2c3cc(ccc31)-c1csc(n1)C[C@H](NC(=O)[C@H](C(C)C)N(C)C(=O)N1CC(C3COC3)C1)C(=O)N1CCC[C@H](N1)C(=O)OCC(C)(C)C2 [Example A465]", "value_type": "IC50", "obs_value": "10 to 100 nM"}
{"compound": "C=CC(=O)N(C)CCN(C)C(=O)N(C)[C@H](C(=O)N[C@H]1Cc2nc(cs2)-c2ccc3c(c2)c(c(-c2cccnc2[C@H](C)OCC)n3CC)CC(C)(C)COC(=O)[C@@H]2CCCN(N2)C1=O)C(C)C [Example A437]", "value_type": "IC50", "obs_value": "100 to 1000 nM"}

API: the following record is the query input.
Q. Form field: IC50 recorded for CCn1c(-c2cccnc2COC)c2c3cc(ccc31)-c1cc(O)cc(c1)C[C@H](NC(=O)[C@H](C(C)C)N(C)C(=O)[C@H]1CCN(C(=O)/C=C\CN(C)C)C1)C(=O)N1CCC[C@H](N1)C(=O)OCC(C)(C)C2 [Example A164] with KRAS G12S (Homo sapiens, UniProt P01116+P62937, G12S) (enter value)
A. 100 to 1000 nM
